Settings: in acetone, 293.75 K
Test Readout: solubility (mole fraction)
Reply: number alone, nothing else.

## Input GET /values?readout=solubility (mole fraction)&item= `CC1(C)COP(=O)(C(C)(C)O)OC1`
## Output 0.00415

* * *

Settings: in 1,2-dichloroethane, 303.15 K
Test Readout: solubility (mole fraction)

## Input Which value of solubility (mole fraction) has been reported for `CC1(C)COP(=O)(C(C)(C)O)OC1` in the records?
## Output 0.00308

* * *

Settings: in acetonitrile, 308.15 K
Test Readout: solubility (mole fraction)
Simply state the number, no unit and no words.

## Input What solubility (mole fraction) value was documented for this compound, `CC1(C)COP(=O)(C(C)(C)O)OC1` ?
## Output 0.00629
